- Test target: Cellular tumor antigen p53 (Homo sapiens) (UniProt P04637)
- Sequence (P04637 whole entry, looked up): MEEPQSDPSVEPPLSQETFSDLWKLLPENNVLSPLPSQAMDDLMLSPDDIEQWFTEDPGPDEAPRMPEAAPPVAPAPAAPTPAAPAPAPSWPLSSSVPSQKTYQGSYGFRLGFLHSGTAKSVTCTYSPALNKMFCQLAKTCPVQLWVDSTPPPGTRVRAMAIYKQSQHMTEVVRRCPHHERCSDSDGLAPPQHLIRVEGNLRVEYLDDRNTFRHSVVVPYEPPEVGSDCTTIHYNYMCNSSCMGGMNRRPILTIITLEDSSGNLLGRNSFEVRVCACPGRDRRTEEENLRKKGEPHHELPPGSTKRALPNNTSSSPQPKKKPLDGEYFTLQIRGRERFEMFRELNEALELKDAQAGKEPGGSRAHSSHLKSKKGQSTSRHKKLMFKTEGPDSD
- Method: Inhibition of p53 nuclear export in human NCI-H929 cells at 25 uM incubated for 20 hrs by Western blot analysis
- Type: cell-based
Activity calls are given as the source filed them. The calls are words filed in the database; no cut-off is given here.
Labels: active, inactive

INSERT INTO results (input_smiles, class_name) VALUES
  ('O=C1c2ccccc2C(=O)C1C(=O)C(c1ccccc1)c1ccccc1', 'inactive'),
  ('O=C(Nc1ccc(C2=NCCN2)cc1)c1ccc(C(=O)Nc2ccc(C3=NCCN3)cc2)c([N+](=O)[O-])c1', 'inactive'),
  ('Brc1ccc(C[N+]23CN4CN(CN(C4)C2)C3)cc1', 'active'),
  ('Clc1cc(Cl)c(C[N+]23CN4CN(CN(C4)C2)C3)cc1Cl', 'inactive');

---

- Test target: DNA topoisomerase 2-alpha (Homo sapiens) (UniProt P11388)
- Sequence (P11388 whole entry): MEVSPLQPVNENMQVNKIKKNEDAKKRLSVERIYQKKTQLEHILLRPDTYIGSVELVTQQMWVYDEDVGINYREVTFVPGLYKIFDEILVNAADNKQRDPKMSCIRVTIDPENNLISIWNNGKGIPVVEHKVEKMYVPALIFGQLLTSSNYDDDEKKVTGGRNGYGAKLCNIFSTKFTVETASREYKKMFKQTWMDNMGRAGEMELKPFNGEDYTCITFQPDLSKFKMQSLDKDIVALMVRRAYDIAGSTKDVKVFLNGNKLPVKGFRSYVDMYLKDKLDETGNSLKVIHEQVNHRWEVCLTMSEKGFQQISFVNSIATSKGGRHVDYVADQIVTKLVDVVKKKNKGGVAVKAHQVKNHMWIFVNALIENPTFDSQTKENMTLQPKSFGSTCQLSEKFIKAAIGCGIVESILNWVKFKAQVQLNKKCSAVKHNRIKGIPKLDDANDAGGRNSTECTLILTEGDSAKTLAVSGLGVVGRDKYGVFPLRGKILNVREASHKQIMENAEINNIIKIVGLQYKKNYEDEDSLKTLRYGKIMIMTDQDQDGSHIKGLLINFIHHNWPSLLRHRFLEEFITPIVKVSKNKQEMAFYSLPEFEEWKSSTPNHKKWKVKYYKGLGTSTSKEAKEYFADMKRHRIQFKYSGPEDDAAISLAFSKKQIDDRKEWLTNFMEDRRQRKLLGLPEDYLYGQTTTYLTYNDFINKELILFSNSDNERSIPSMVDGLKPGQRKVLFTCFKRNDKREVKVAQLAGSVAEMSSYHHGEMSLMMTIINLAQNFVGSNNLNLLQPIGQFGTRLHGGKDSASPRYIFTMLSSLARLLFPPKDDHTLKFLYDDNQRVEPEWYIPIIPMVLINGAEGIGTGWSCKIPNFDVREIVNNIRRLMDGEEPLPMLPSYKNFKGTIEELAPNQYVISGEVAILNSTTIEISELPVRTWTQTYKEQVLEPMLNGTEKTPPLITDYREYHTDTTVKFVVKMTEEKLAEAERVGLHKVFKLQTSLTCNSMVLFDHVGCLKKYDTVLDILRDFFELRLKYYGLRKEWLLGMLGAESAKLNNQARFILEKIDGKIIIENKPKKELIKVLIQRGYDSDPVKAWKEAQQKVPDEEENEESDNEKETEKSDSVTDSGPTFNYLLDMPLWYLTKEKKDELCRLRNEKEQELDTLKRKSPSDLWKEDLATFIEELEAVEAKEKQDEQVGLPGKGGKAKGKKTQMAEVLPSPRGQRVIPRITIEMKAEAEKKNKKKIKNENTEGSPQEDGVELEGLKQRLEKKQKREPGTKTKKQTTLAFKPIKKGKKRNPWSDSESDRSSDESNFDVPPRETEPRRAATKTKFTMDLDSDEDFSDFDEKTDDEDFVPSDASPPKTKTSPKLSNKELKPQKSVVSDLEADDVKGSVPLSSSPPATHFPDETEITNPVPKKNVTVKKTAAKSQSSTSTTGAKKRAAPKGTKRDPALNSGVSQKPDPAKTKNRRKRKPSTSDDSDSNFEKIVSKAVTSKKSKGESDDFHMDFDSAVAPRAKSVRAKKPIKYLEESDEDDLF
- Method: Inhibition of nuclear export signal of topoisomerase 2alpha in human NCI-H929 cells assessed as reduction in cytoplasmic localization of Top2alpha at 100 uM incubated for 24 hrs by Western blot analysis
- Assay type: cell-based
Active and inactive are the calls of the source. The rule behind the calls is not given here.
Labels: yes (active), no (inactive)

INSERT INTO assay_data (molecule, class_name) VALUES
  ('Clc1cc(Cl)c(C[N+]23CN4CN(CN(C4)C2)C3)cc1Cl', 'no'),
  ('O=C(C[N+]12CN3CN(CN(C3)C1)C2)c1ccc(Br)cc1', 'no'),
  ('O=C1c2ccccc2C(=O)C1C(=O)C(c1ccccc1)c1ccccc1 [DIPHENADIONE]', 'yes'),
  ('Brc1ccc(C[N+]23CN4CN(CN(C4)C2)C3)cc1', 'yes'),
  ('O=C(Nc1ccc(C2=NCCN2)cc1)c1ccc(C(=O)Nc2ccc(C3=NCCN3)cc2)c([N+](=O)[O-])c1', 'yes');
